For each record, write down the corresponding shrunken log2 fold change.
Test system: Escherichia coli TOP10
TEST: shrunken log2 fold change of peptide-encoding DNA abundance (4.5 h post-induction vs induction); higher = less antimicrobial activity (less host growth inhibition)
TEST SETTINGS: time post-induction: 4.5 h; library: site-saturation at positions 5, 18, 19, 20
Answer with a number only.

Lab note: need shrunken log2 fold change for "RRIRGRPPRLPRPRPRPMVTPRP" on Escherichia coli TOP10, anyone have it?
1.29

Tell me reported shrunken log2 fold change for "RRIRLRPPRLPRPRPRPCTFPRP" , tested with Escherichia coli TOP10.
-0.0569

Report shrunken log2 fold change for "RRIRLRPPRLPRPRPRPPWYPRP" tested on Escherichia coli TOP10.
-0.312

Which shrunken log2 fold change is reported with Escherichia coli TOP10 for this entry: "RRIRSRPPRLPRPRPRPGTQPRP" ?
0.00256

Report shrunken log2 fold change for "RRIRDRPPRLPRPRPRPPEIPRP" tested on Escherichia coli TOP10.
0.487

Please provide the recorded shrunken log2 fold change for "RRIRERPPRLPRPRPRPPFPPRP" , tested on Escherichia coli TOP10.
0.018

Short answer please: shrunken log2 fold change, Escherichia coli TOP10, entry "RRIRCRPPRLPRPRPRPTPMPRP"
0.534

Recall the recorded shrunken log2 fold change for "RRIRNRPPRLPRPRPRPLPYPRP" with Escherichia coli TOP10 and state it.
-0.542

Provide value of shrunken log2 fold change for this record tested with Escherichia coli TOP10: "RRIRQRPPRLPRPRPRPHVPPRP"
-0.0247

Provide the documented shrunken log2 fold change with Escherichia coli TOP10 as the system for "RRIRDRPPRLPRPRPRPCFCPRP"
-0.054

Test system Escherichia coli TOP10; read-out shrunken log2 fold change; what value for "RRIRPRPPRLPRPRPRPIVHPRP" ?
-0.155

Return shrunken log2 fold change measured with Escherichia coli TOP10 given this sequence: "RRIRKRPPRLPRPRPRPMCYPRP"
-0.00324

So what shrunken log2 fold change did "RRIRGRPPRLPRPRPRPWGTPRP" get with Escherichia coli TOP10?
0.0721

So what shrunken log2 fold change did "RRIRWRPPRLPRPRPRPLRWPRP" get with Escherichia coli TOP10?
1.08

So what shrunken log2 fold change did "RRIRKRPPRLPRPRPRPRFVPRP" get with Escherichia coli TOP10?
0.0638

Given the entry "RRIRNRPPRLPRPRPRPDTHPRP" , what shrunken log2 fold change was observed with Escherichia coli TOP10?
-0.105

Look up shrunken log2 fold change with Escherichia coli TOP10 for this sequence: "RRIRMRPPRLPRPRPRPVRFPRP"
0.725

Observed shrunken log2 fold change on Escherichia coli TOP10 for "RRIRWRPPRLPRPRPRPPSLPRP" , please.
0.115

Identify the measured shrunken log2 fold change of "RRIRFRPPRLPRPRPRPPRQPRP" for Escherichia coli TOP10.
0.828

// lookup shrunken log2 fold change | system=Escherichia coli TOP10 | key= "RRIRCRPPRLPRPRPRPQIFPRP"
2.2

Quick check: shrunken log2 fold change on Escherichia coli TOP10, item "RRIRYRPPRLPRPRPRPWFAPRP" ?
-0.497

// fetch Escherichia coli TOP10 shrunken log2 fold change for "RRIRRRPPRLPRPRPRPWYAPRP"
-0.0635

What is its shrunken log2 fold change for Escherichia coli TOP10? Entry: "RRIRPRPPRLPRPRPRPCQWPRP"
0.205

I'm curious: which shrunken log2 fold change was measured for "RRIRKRPPRLPRPRPRPIQQPRP" tested on Escherichia coli TOP10?
0.25

Identify the measured shrunken log2 fold change of "RRIRKRPPRLPRPRPRPYTDPRP" for Escherichia coli TOP10.
-0.0224

Request body: readout shrunken log2 fold change, system Escherichia coli TOP10, query "RRIRNRPPRLPRPRPRPSMSPRP" . Return the value.
-0.222

Identify the measured shrunken log2 fold change of "RRIRFRPPRLPRPRPRPDHNPRP" for Escherichia coli TOP10.
-0.911

Given the entry "RRIRERPPRLPRPRPRPILVPRP" , what shrunken log2 fold change was observed with Escherichia coli TOP10?
0.028

Reported shrunken log2 fold change for Escherichia coli TOP10, given "RRIRNRPPRLPRPRPRPEVEPRP" ?
0.154

Form: Entry = "RRIRLRPPRLPRPRPRPDDFPRP" | System = Escherichia coli TOP10 | shrunken log2 fold change = ____;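 also: peptides expressed intracellularly from a pBAD plasmid library in pooled LB shake-flask culture, induced with 0.3% L-arabinose, DNA abundance read by NGS, three biological replicates, DESeq2 with apeglm shrinkage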
-0.0359

Requested read-out shrunken log2 fold change, target or system Escherichia coli TOP10, entry "RRIRPRPPRLPRPRPRPQICPRP"
-0.0262

Lab note: need shrunken log2 fold change with Escherichia coli TOP10 for entry "RRIRVRPPRLPRPRPRPFLIPRP" , please look it up.
-0.777

Find shrunken log2 fold change (Escherichia coli TOP10) for the entry "RRIRRRPPRLPRPRPRPMEGPRP"
0.0518

// provenance: the supplement of paper PMC9112550
